Please go through the items and note down their growth.
Test system: DU-145 prostate
Experiment: NCI-60 one-dose screen, 48 h (100 = growth as untreated, 0 = no growth, -100 = all killed)
Conditions: 10 µM unless noted
This is part of a sample that, as a whole, favours compounds with a hit. Of some 83,000 tested, about 20% had one in any assay.
Entry rule: numbers only, all in %.

Using the record for `O=C(/C=C(O)/C=C/c1cccc2[nH]ccc12)/C=C/c1cccc2[nH]ccc12` , report its growth.
95.6

Entry `CC1=C2[C@@H](CC1)[C@]1(C)O[C@@](C3CCCCC3)(C[C@H]1OC(=O)CO)[C@H]2OC(=O)/C=C/c1ccccc1` : reported growth = ?
89.3

Which growth value belongs to `Cc1ccc(-c2nc(SCc3nc4cc(Cl)c(Cl)cc4[nH]3)[nH]c(=O)c2C#N)cc1` ?
91.6

What does the data say about its growth? Entry: `COc1ccc2c(c1)c(/C(O)=C1\COC(=O)C1=O)cn2Cc1ccc(F)cc1`
139

Fill in the blank: the reported growth of `CN1CCN(C(=O)[C@@]2(C)CC[C@]3(C)CC[C@]4(C)C(=CC[C@@H]5[C@@]6(C)CCC(=O)NC(C)(C)[C@@H]6CC[C@]54C)[C@@H]3C2)CC1` is ____.
86.7

Returns the measured growth for the input compound. Input: `CN1CCN(C(=O)C(C)(C)c2ccc(C(=O)Nc3cn4cc(-c5ccncc5)ccc4n3)cc2)CC1`
16.1

Suppose we examine the compound `COc1cc(/C=C/C(=O)c2ccc(-n3cc(CN4CCN(c5cc6c(cc5F)c(=O)c(C(=O)O)cn6C5CC5)CC4)nn3)cc2)ccc1O` ; what growth value has been reported?
77.5

// returns reported growth for input `O=c1ccc(=O)n(-c2nc(-c3ccc([N+](=O)[O-])cc3)cs2)[nH]1`
97.7

Recorded growth of `COc1ccc(/C=C2\CN(C(=O)C(Cl)Cl)C/C(=C\c3ccc(OC)cc3)C2=O)cc1` , please.
-11.2

I have this compound here, `Cc1c2cccnc2c(C)c2c1c1cc(CO)ccc1n2C` , and I need its recorded growth.
25.3

Could you share which growth value was measured for `CCN(CC)CCN1C(=O)c2cccc3c(/C=C/CN4C(=O)c5cccc6cccc(c56)C4=O)ccc(c23)C1=O` ?
106

Requested read-out: growth. Entry: `CN1C(=O)/C(=C/c2ccc(C(=O)Nc3ncc(Cc4cccc(Cl)c4)s3)cc2)SC1=S`
66.3

Which growth value belongs to `CN(CCCNC(=O)CCOCCOCCOCCNC(=O)Cc1ccc2ccc3cccc4ccc1c2c34)CCCNc1cc(-c2ccc3ccccc3c2)nc2ccccc12` ?
-95.8

Can you look up the measured growth of CC(C)N1C(=O)/C(=c2\sc3n(c2=O)C2C(NN=3)N(C)C(=O)N2C)c2ccccc21 (stereo not given) for me?
84.3

Reported growth for `CC(=O)Oc1ccc(OC(C)=O)c2ccccc12` : what is it?
116

Endpoint output: growth of `C/C(=N\O)c1ccc(NC(=O)CSc2nnc(-c3cc(-c4ccc(S(N)(=O)=O)cc4)nc4ccccc34)n2-c2ccccc2)cc1` . Value?
80.3

growth lookup needed for `CC/C(Cc1ccccc1)=C(\c1ccc(OCCCN(C)C)cc1)c1ccc(OC(=O)NCc2ccccc2)cc1` , thanks.
73.9

Item under review: `O=S(=O)(NCCNc1nccc(-c2c(-c3ccc(F)c(O)c3)nc3sccn23)n1)c1ccc(F)cc1` . Reported growth?
34.4

# input compound: `Cn1cc(-c2nn3cc(-c4cccs4)nc3s2)c2cc(F)ccc21` ; wanted: its growth
51.1

Looking for the measured growth of `COc1ccc(C(=O)N2c3ccccc3Sc3ccccc32)c(C(F)(F)F)c1` , can you help?
14.2

Looking for the measured growth of `CN(Cc1cc(Br)cc(Br)c1O)Cc1cc(Br)cc(Br)c1O` , can you help?
54.8

# input compound: `Cc1ccc(C(=O)c2ccc(CC(=O)NN3C(=O)c4ccccc4C3=O)n2C)cc1` ; wanted: its growth
108

Would you kindly share the measured growth for `CCCCNC(=O)Oc1ccc(/C(=C(/C)Cc2ccc(OC)cc2)c2ccc(OCCN3CCCCCC3)cc2)cc1` ?
91.6

Using the record for `Nc1[nH]c(=S)nc2oc(-c3ccccc3)c(-c3ccccc3)c12` , report its growth.
106

# input compound: `O=c1c2c3c(sc2n2c(-c4cc(-c5ccccc5)no4)nnc2n1Cc1ccccc1)CCCC3` ; wanted: its growth
88.5

Can you share its growth? I mean this compound: `Cc1ccc(S(=O)(=O)c2nc(-c3ccccc3)oc2Sc2nc3ccccc3s2)cc1`
100

Dear colleague, I am looking for the recorded growth of the following compound: `O=C1/C(=C2\SC(=S)N(C3CC3)C2=O)SC(=S)N1C1CC1`
105

Which growth value belongs to `O=C(N/N=C/c1cc(Cl)ccc1O)c1ccccc1Nc1ccnc(C(F)(F)F)c1` ?
25.8

Tell me the measured growth of `O=C1/C=C/[C@@H](O)[C@@H]2C[C@@H](O)C[C@H]2/C=C/CCC[C@@H](O)CCO1` , please.
105

Tell me the measured growth of `Cc1ccc(/C=C/C(=O)c2cccc(OCCCOc3cccc(C(=O)/C=C/c4ccc(C)cc4)c3)c2)cc1` , please.
88.9

----------
Kindly supply the reported growth values for the records listed here.
Test system: NCI-H522 lung
Assay: NCI-60 one-dose screen, 48 h (100 = growth as untreated, 0 = no growth, -100 = all killed)
Conditions: 10 µM unless noted
This is part of a sample that, as a whole, favours compounds with a hit. Of some 83,000 tested, about 20% had one in any assay.
Write the number in % without appending the unit.

Give the measured growth of `COC(=O)CCC/C=C\C[C@H]1C=CC(=O)/C1=C/C[C@@H](O)C/C=C\CC(F)(F)F` .
-56.6

Look up growth for this molecule: `C=CCN1C(=O)c2cccc3c(N4CCOCC4)ccc(c23)C1=O`
-1.11

What measured growth goes with Nc1nc(N)c2c(n1)NC(c1ccc(Cl)cc1)C1CCc3ccccc3C1=N2 (stereo not given) ?
76.7

Which growth reading was recorded for the molecule `O=C(Nc1ccc(Cl)cc1)Oc1c(Cl)c(Cl)c(Cl)c(Cl)c1Cl` ?
83.2

Any idea what its growth is? The molecule is `CCCCC#Cc1c(I)n(C)c(=O)[nH]c1=O`
-13.4

----------
Test system: NCI-H226 lung
Test: NCI-60 one-dose screen, 48 h
Details: 10 µM unless noted
Method: Growth inhibition of the NCI-H226 human Non-Small Cell Lung tumor cell line is measured as a screen for anti-cancer activity. Cells are grown in 96 well plates and exposed to the test compound for 48 hours. Compounds are tested at a single concentration, which is 10^-5 M for most compounds. The reported endpoint is percent growth (GI% or GIPRCNT), where numbers from 0 - 100% represent growth inhibition, and numbers from -100% - 0 represent cell death. […]
This is part of a sample that, as a whole, favours compounds with a hit. Of some 83,000 tested, about 20% had one in any assay. Active and inactive are the calls of the source. The calls were made as follows: active = growth percent below 10; inactive = the rest.
Respond only with the outcome that fits, drawn from active, inactive

Lab log entry: `O=C1C(Nc2ccccn2)=C(I)C(=O)c2ncccc21` — outcome as called in the assay?
inactive

Tell me the recorded outcome of this test for `C/C(=N\O)c1ccc(NC(=O)CSc2nnc(-c3cc(-c4ccc(S(C)(=O)=O)cc4)nc4ccccc34)n2-c2ccccc2)cc1` .
inactive

For `COc1ccc(C(=O)Cn2c(C(=O)c3ccc(Cl)cc3)nc3ccccc32)cc1` , which call appears in the assay record?
inactive

How was `COc1ccc2c(c1)CCc1[nH]nc(-c3cc(OC)c(OC)c(OC)c3)c1-2` classified in this test?
inactive

Fill in: this test's call for `O=C(/C=C/c1ccccc1)c1ccc(Nc2nc(Nc3ccc(F)cc3)nc(Nc3ccc(Cl)cc3)n2)cc1` is ___
inactive

Hello, I am checking results. What call was entered for Nc1nc(N)c2c(n1)NC(c1ccc(Cl)cc1)C1CCc3ccccc3C1=N2 (stereo not drawn) ?
inactive

Can you look up the reported call for O=P(O)(O)OCC1OC(n2cnc3c(NCc4ccco4)ncnc32)C(O)C1O (stereo not drawn) for me?
inactive

Lab log entry: `C=CC(=O)Nc1ccc(Oc2nccc(Nc3nnc(-c4ccc(C)cc4)s3)n2)cc1` — outcome as called in the assay?
inactive

Hey, what did the test say about `COc1cc(OC)c(C(=O)C(CN(C)C)CN(C)C)cc1OC` ?
inactive

Field: outcome | Entry: `O=C1c2ccccc2C(=O)c2c1cc1c(c2[N+](=O)[O-])OCO1`
inactive

Per the assay record, what outcome was assigned to CN(Cc1ccccc1)c1nc(Cl)c(C2CC(c3ccccc3)=NN2c2ccccc2)s1 (stereo not drawn) ?
inactive

What classification did `O=S1(=O)C=C(c2ccccc2)C(c2ccccc2)=C1` end up with in this test?
inactive

So what was the verdict on `O=C(Nc1ccc(Br)cc1)C1=NCCCCN1` in this test?
inactive

Call for entry `CCN1CCN(CC(=O)Nc2nc3ccc(NCc4ccc(F)cc4)cc3s2)CC1` :
inactive

Record request — test call for `Cc1ccc(-c2nc(-c3cn(C)c4ncccc34)cs2)cc1`
active

Status in this test for `O=C1/C=C/[C@@H](O)[C@@H]2C[C@@H](O)C[C@H]2/C=C/CCC[C@@H](O)CCO1` ?
inactive

Would you mind telling me which call this test gave `COc1cccc(CNc2c3ccccc3nc3ccccc23)c1` ?
inactive

Status in this test for `O=C1/C=C/[C@@H](O)[C@@H]2C[C@@H](O)C[C@H]2/C=C/CCC[C@H](CCO)O1` ?
active

Can you look up the reported call for `Cc1ncc(C(=O)Nc2ccc(CN3CCN(C)CC3)c(C(F)(F)F)c2)cc1C#Cc1cnc(N)c2ncccc12` for me?
inactive

Hello, I am checking results. What call was entered for `Cc1nn(-c2ccccc2)c(N)c1N=C1NC(=O)/C(=C/c2ccc(Br)cc2)S1` ?
inactive

Recorded test outcome, item `COc1ccc(N2CCN(C(=O)c3sc4nc(C)c(Br)c(C)c4c3N)CC2)cc1`
inactive

Please share the test call associated with `Fc1ccc2[nH]cc(-c3nc(-c4c[nH]c5ccncc45)cs3)c2c1` .
inactive

Would you mind telling me which call this test gave `N#CSc1c[nH]c2cccc(/C=C/C(=O)/C=C(O)/C=C/c3cccc4[nH]cc(SC#N)c34)c12` ?
active

How was `O=C(O)/C=C/C(=O)Nc1cccc(Cn2nnc3cc(Cl)c(Cl)cc32)c1` classified in this test?
inactive

What was the test verdict on `COc1ccc(-c2n[nH]c(=O)c3nc(NC(=S)Nc4ccc(Oc5ccccc5)cc4)sc23)cc1` ?
inactive

# fetch the recorded call for `CC(C)(C)n1cc(-c2ccnc(NCCCNS(=O)(=O)c3ccc(C(F)(F)F)cc3)c2)c(-c2cccc(F)c2)n1` here
inactive

State the result this test recorded for `CN(C)c1ccc(-c2ccc3c(c2)c(-c2ccccc2)nc(=O)n3C)cn1` .
inactive

// param item: `O=C(CCl)NNc1nccc(Nc2ccc(S(=O)(=O)Nc3ccncc3)cc2)n1` ; yields the recorded call
inactive

Assay result, entry `C=C(C)[C@@H]1CC[C@]2(C)[C@H](CC=C3[C@@H]4CC(C)(C)CC[C@]4(CO)CC[C@]32C)[C@@]1(C)CCCN` — outcome?
inactive

// outcome(item) with item = `FC(F)(F)Oc1cccc(-c2cnc3ccc(-c4ccncc4)nn23)c1`
inactive

Record request — test call for `N#C/C(=C\c1ccc(-c2cccc(C(F)(F)F)c2)o1)c1ccccc1`
inactive

Tell me the recorded outcome of this test for `COC1=C(C)C(=O)N2[C@@H]1[C@H](c1ccccc1)OC21C=CC(=O)C=C1` .
active

I'd appreciate the recorded outcome for `COC(=O)/C=C1/SC(=Nc2ccc([N+](=O)[O-])cc2)N(CCc2c[nH]c3ccc(O)cc23)C1=O` from this test.
inactive

Values were extracted from PubChem BioAssay (NCI).
